# target: T1, Human BSSL (bile salt-stimulated lipase), native (human, UniProt P19835 21-753)
# T1 sequence: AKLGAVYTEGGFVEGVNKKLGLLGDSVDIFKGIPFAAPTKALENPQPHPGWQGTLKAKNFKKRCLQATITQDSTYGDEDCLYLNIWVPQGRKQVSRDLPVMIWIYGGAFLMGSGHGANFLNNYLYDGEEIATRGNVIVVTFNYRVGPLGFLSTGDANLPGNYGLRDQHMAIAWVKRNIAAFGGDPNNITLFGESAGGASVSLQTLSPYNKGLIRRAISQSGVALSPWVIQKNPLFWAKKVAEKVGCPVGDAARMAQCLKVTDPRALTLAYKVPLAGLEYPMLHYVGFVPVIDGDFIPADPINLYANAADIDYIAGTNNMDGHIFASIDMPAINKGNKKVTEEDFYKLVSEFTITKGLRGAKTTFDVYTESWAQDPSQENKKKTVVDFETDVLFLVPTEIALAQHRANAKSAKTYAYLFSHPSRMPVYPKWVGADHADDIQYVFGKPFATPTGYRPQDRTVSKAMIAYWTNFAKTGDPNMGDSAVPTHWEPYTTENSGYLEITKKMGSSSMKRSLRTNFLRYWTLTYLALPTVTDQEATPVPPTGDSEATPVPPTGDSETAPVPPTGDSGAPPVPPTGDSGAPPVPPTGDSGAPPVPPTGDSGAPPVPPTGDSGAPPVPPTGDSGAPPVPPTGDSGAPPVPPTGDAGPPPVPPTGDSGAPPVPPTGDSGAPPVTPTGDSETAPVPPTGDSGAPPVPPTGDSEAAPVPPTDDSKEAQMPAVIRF
# method.description: cell-based or functional assay
For each record, write down the corresponding BSSL hydrolysis of triglycerides, relative value (no antibody = 100%); 0.38 ug antibody.
Please state the value followed by its unit.

Consider the reported BSSL hydrolysis of triglycerides, relative value (no antibody = 100%); 0.38 ug antibody for these binders:
| binder | result |
| --- | --- |
| S-SL048-106 hIgG4 S228P (antibody, V domains shown, also called mAb106) VH: QVQLVQSGAEVKKPGASVKVSCKASGYTFTSYNMHWVRQAPGQGLEWIGVIYPGDGSTSYNQKFQGRVTMTRDTSTSTVYMELSSLRSEDTAVYYCARDYYGSSPLGYWGQGTLVTVSS VL: DIQMTQSPSSLSASVGDRVTITCSASSSISYMNWYQQKPGKAPKLLIYATSKLPSGVPSRFSGSGSGTDFTLTISSLQPEDFATYYCHQRSSTPTFGQGTKLEIKR | 123% |
| S-SL048-118 hIgG4 S228P (antibody, V domains shown, also called clone 118; mAb118) VH: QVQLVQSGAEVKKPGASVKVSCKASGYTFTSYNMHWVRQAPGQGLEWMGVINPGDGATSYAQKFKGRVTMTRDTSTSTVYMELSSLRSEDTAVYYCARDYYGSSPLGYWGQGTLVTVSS VL: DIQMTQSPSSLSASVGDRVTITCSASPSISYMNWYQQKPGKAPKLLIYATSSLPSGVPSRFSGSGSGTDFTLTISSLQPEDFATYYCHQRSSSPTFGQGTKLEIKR | 106% |
| S-SL048-11 hIgG4 S228P (antibody, V domains shown, also called clone 11; mAb11) VH: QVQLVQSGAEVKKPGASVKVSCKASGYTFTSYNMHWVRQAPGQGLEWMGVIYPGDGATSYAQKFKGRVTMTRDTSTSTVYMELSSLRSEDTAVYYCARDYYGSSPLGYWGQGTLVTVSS VL: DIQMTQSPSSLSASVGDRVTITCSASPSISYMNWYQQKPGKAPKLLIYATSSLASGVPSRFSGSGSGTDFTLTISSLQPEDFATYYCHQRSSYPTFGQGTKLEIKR | 114% |
| S-SL048-46 hIgG4 S228P (antibody, V domains shown, also called clone 46; mAb46) VH: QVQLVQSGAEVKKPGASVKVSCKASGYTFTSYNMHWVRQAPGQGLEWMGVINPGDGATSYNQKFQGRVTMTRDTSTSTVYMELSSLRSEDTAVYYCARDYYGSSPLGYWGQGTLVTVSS VL: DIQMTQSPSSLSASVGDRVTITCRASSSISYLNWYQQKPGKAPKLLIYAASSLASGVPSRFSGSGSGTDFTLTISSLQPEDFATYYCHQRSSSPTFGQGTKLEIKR | 123% |

// next item, BSSL hydrolysis of triglycerides, relative value (no antibody = 100%); 0.38 ug antibody requested
q: Please indicate BSSL hydrolysis of triglycerides, relative value (no antibody = 100%); 0.38 ug antibody recorded for S-SL048-116 hIgG4 S228P (antibody, V domains shown, also called mAb116) VH: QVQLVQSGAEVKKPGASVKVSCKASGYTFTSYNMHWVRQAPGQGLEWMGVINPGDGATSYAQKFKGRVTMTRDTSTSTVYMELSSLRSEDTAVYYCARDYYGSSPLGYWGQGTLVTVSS VL: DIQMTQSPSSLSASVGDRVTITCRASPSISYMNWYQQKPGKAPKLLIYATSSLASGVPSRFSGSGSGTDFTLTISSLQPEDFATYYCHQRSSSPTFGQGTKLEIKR
a: 112%
